# measurement_notes: Multiple ascending dose study: plasma pharmacokinetics
# Format: in vivo
# test_conditions: human, po, 100 mg, Day 1, 100 mg QD oral, read-out: AUC(0-24 h) Median
endpoint: AUC(0-t) (ng·h/mL)
Answers are plain numbers, in ng·h/mL.

So, COc1ncc(C)c(-c2ccc3c(c2)[nH]c(=O)c2cnn([C@H]4CCOC4)c23)c1C [Compound A] ? Its AUC(0-t) was 5180

###

# measurement_notes: Multiple ascending dose study: plasma pharmacokinetics
# Type: in vivo
# test_conditions: human, po, 50 mg, Part C, 50 mg oral, read-out: AUC (0-24 h) GM (% CV)
endpoint: AUC(0-t) (ng·h/mL)
One number for each entry, in ng·h/mL.

Measured AUC(0-t) of `COc1ncc(C)c(-c2ccc3c(c2)[nH]c(=O)c2cnn([C@H]4CCOC4)c23)c1C` : 10500
